Target: Full-length, wild-type calmodulin (paramecium sequence) (paramecium, UniProt P07463 1-149)
Assay: other fluorescence titration
Measurement Type: Kd
Number first, unit second.

Entry under test: KRKQEEVSAIVIQRAYRRYLLKQKVKK (domain or fragment) [NaV1.2 IQ biosensor (rat NaV1.2 residues 1901-1927 flanked by YFP and CFP)] . Its Kd was 3.2 nM
